- experiment.notes: Solubility of the compound at pH 7.4
- Type: physicochemical
- condition.set: buffer
endpoint.label: solubility

COCCOc1ccc(N2CCN(CCn3c(=O)n(C)c4c3nc(N)n3nc(-c5nccs5)nc43)CC2)cc1F : 17 µM
Cn1c(=O)n(CCN2CCN(c3ccc(C#N)cc3)CC2)c2nc(N)n3nc(-c4ccco4)nc3c21 : < 2 µM
COCCOc1ccc(N2CCN(CCn3c(=O)n(C)c4c3nc(N)n3nc(-c5ccco5)nc43)CC2)cc1 : < 6 µM

* * *

- target.entity: Adenosine receptor A1 (Homo sapiens)
- experiment.notes: Displacement of [3H]-DPCPX from human A1 receptor expressed in HEK293 cell membranes at 1 uM after 90 mins radioligand binding assay relative to control
Listed below: inhibition values for each entry.
endpoint.label: inhibition

Cn1c(=O)n(CCN2CCN(c3ccc(OC(F)F)cc3)CC2)c2nc(N)n3nc(-c4ccco4)nc3c21 : 34%
COc1ccc(N2CCN(CCn3c(=O)n(C)c4c3nc(N)n3nc(-c5ccco5)nc43)CC2)cn1 : 61%
Cn1c(=O)n(CCN2CCN(c3ccc(F)cc3F)CC2)c2nc(N)n3nc(-c4ccco4)nc3c21 : 32%
Cn1c(=O)n(CCN2CCN(c3ccc(C(F)(F)F)cc3)CC2)c2nc(N)n3nc(-c4ccco4)nc3c21 : 57%
Cn1c(=O)n(CCN2CCN(c3ccc(OC4CC4)cc3)CC2)c2nc(N)n3nc(-c4ccco4)nc3c21 : 50%
COCC(C)Oc1ccc(N2CCN(CCn3c(=O)n(C)c4c3nc(N)n3nc(-c5ccco5)nc43)CC2)cc1 (configuration not stated) : 56%
COCCOc1ccc(N2CCN(CCn3c(=O)n(C)c4c3nc(N)n3nc(-c5ccco5)nc43)CC2)cc1F : 68%
Cn1c(=O)n(CCN2CCN(c3nc(C(F)(F)F)cs3)CC2)c2nc(N)n3nc(-c4ccco4)nc3c21 : 58%
Cc1nc2cc(N3CCN(CCn4c(=O)n(C)c5c4nc(N)n4nc(-c6ccco6)nc54)CC3)c(F)cc2o1 : 48%
COc1ccc(N2CCN(CCn3c(=O)n(C)c4c3nc(N)n3nc(-c5ccco5)nc43)CC2)c(F)c1 : 45%
Cn1c(=O)n(CCN2CCN(c3ccc(OC4CCOCC4)cc3)CC2)c2nc(N)n3nc(-c4ccco4)nc3c21 : 56%
COc1ccc(N2CCN(CCn3c(=O)n(C)c4c3nc(N)n3nc(-c5ccco5)nc43)CC2)cc1 : 58%
COCCOc1cccc(N2CCN(CCn3c(=O)n(C)c4c3nc(N)n3nc(-c5ccco5)nc43)CC2)c1 : 63%
COCCOc1c(F)cc(N2CCN(CCn3c(=O)n(C)c4c3nc(N)n3nc(-c5ccco5)nc43)CC2)cc1F : 65%
Cc1ccc(N2CCN(CCn3c(=O)n(C)c4c3nc(N)n3nc(-c5ccco5)nc43)CC2)cc1 : 45%
COCCOc1cc(F)c(N2CCN(CCn3c(=O)n(C)c4c3nc(N)n3nc(-c5ccco5)nc43)CC2)cc1F : 58%
COCCOc1ccc(N2CCN(CCn3c(=O)n(C)c4c3nc(N)n3nc(-c5nccs5)nc43)CC2)cc1 : 19%
Cn1c(=O)n(CCN2CCN(c3ccc(OC4CCOC4)cc3)CC2)c2nc(N)n3nc(-c4ccco4)nc3c21 (configuration not stated) : 49%
COCC(C)(C)Oc1ccc(N2CCN(CCn3c(=O)n(C)c4c3nc(N)n3nc(-c5ccco5)nc43)CC2)cc1 : 36%
Cc1ccc(N2CCN(CCn3c(=O)n(C)c4c3nc(N)n3nc(-c5ccco5)nc43)CC2)nc1 : 61%
Cn1c(=O)n(CCN2CCN(c3ccc(OCCOC4CC4)cc3)CC2)c2nc(N)n3nc(-c4ccco4)nc3c21 : 66%
Cn1c(=O)n(CCN2CCN(c3ccc(C#N)c(F)c3)CC2)c2nc(N)n3nc(-c4ccco4)nc3c21 : 50%

* * *

- experiment.notes: Volume of distribution at steady state in Wistar rat at 3 mg/kg, iv by LC-MS/MS analysis
- Assay type: ADME, organism-based
- condition.set: in vivo, read-out: Vdss
endpoint.label: Vd (L/kg)

COCCOc1ccc(N2CCN(CCn3c(=O)n(C)c4c3nc(N)n3nc(-c5nccs5)nc43)CC2)cc1F : 3.6

* * *

- experiment.notes: AUC (0 to t) in Wistar rat at 3 mg/kg, iv by LC-MS/MS analysis
- Type: ADME, organism-based
- condition.set: in vivo
endpoint.label: AUC(0-t) (µM·h)

COCCOc1ccc(N2CCN(CCn3c(=O)n(C)c4c3nc(N)n3nc(-c5nccs5)nc43)CC2)cc1F : 3.6

* * *

- experiment.notes: Protein binding in mouse plasma
- Assay type: ADME, cell-free
- condition.set: read-out: PPB (converted)
endpoint.label: fraction unbound

COCCOc1ccc(N2CCN(CCn3c(=O)n(C)c4c3nc(N)n3nc(-c5nccs5)nc43)CC2)cc1F : 0.49

* * *

- target.entity: Adenosine receptor A2a (Homo sapiens)
- experiment.notes: Displacement of [3H]ZM241385 from human A2A receptor expressed in HEK293 cell membranes after 90 mins radioligand binding assay
The label criterion met is reserved for Ki strictly under 0.5 nM; criterion not met covers values equal to or above it.

Cn1c(=O)n(CCN2CCN(c3ccc(C(F)(F)F)cc3)CC2)c2nc(N)n3nc(-c4ccco4)nc3c21 : criterion not met
Cn1c(=O)n(CCN2CCN(c3nc(C(F)(F)F)cs3)CC2)c2nc(N)n3nc(-c4ccco4)nc3c21 : criterion not met
Cn1c(=O)n(CCN2CCN(c3ccc(OCCOC4CC4)cc3)CC2)c2nc(N)n3nc(-c4ccco4)nc3c21 : criterion not met
Cn1c(=O)n(CCN2CCN(c3ccc(C#N)cc3)CC2)c2nc(N)n3nc(-c4ccco4)nc3c21 : criterion not met
Cn1c(=O)n(CCN2CCN(c3ccc(OC4CC4)cc3)CC2)c2nc(N)n3nc(-c4ccco4)nc3c21 : criterion met
COCCOc1ccc(N2CCN(CCn3c(=O)n(C)c4c3nc(N)n3nc(-c5ccco5)nc43)CC2)cc1 : criterion not met
COc1ccc(N2CCN(CCn3c(=O)n(C)c4c3nc(N)n3nc(-c5ccco5)nc43)CC2)c(F)c1 : criterion met
Cn1c(=O)n(CCN2CCN(c3ccc(OC4CCOC4)cc3)CC2)c2nc(N)n3nc(-c4ccco4)nc3c21 (configuration not stated) : criterion met
COc1ccc(N2CCN(CCn3c(=O)n(C)c4c3nc(N)n3nc(-c5ccco5)nc43)CC2)cc1 : criterion not met
COCC(C)Oc1ccc(N2CCN(CCn3c(=O)n(C)c4c3nc(N)n3nc(-c5ccco5)nc43)CC2)cc1 (configuration not stated) : criterion met
Cn1c(=O)n(CCN2CCN(c3ccc(OC4CCOCC4)cc3)CC2)c2nc(N)n3nc(-c4ccco4)nc3c21 : criterion met
COCCOc1c(F)cc(N2CCN(CCn3c(=O)n(C)c4c3nc(N)n3nc(-c5ccco5)nc43)CC2)cc1F : criterion not met
Cn1c(=O)n(CCN2CCN(c3ccc(F)cc3F)CC2)c2nc(N)n3nc(-c4ccco4)nc3c21 : criterion not met
Cc1nc2cc(N3CCN(CCn4c(=O)n(C)c5c4nc(N)n4nc(-c6ccco6)nc54)CC3)c(F)cc2o1 : criterion met
COCCOc1ccc(N2CCN(CCn3c(=O)n(C)c4c3nc(N)n3nc(-c5nccs5)nc43)CC2)cc1 : criterion not met

* * *

- experiment.notes: Tmax in Wistar rat at 10 mg/kg, po administered via gavage by LC-MS/MS analysis
- Format: ADME, organism-based
- condition.set: in vivo
endpoint.label: Tmax (min)

COCCOc1ccc(N2CCN(CCn3c(=O)n(C)c4c3nc(N)n3nc(-c5nccs5)nc43)CC2)cc1F : 48

* * *

- experiment.notes: Protein binding in rat plasma
- Assay type: ADME, cell-free
- condition.set: read-out: PPB (converted)
endpoint.label: fraction unbound

COCCOc1ccc(N2CCN(CCn3c(=O)n(C)c4c3nc(N)n3nc(-c5nccs5)nc43)CC2)cc1F : 0.18

* * *

- target.entity: Adenosine receptor A2a (Homo sapiens, UniProt P29274)
- Sequence (P29274 whole entry): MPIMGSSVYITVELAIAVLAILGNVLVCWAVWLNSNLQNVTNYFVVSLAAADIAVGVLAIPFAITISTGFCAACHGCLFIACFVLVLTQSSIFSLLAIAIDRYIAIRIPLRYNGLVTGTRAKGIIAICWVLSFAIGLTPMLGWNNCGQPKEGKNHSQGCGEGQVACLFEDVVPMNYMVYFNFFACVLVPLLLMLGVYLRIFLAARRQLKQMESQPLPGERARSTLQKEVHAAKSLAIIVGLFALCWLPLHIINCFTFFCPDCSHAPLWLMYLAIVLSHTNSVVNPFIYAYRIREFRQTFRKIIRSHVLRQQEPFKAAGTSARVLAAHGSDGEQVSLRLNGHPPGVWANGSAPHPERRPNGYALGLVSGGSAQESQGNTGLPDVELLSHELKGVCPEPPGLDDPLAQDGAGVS
- experiment.notes: Antagonist activity at human A2A receptor expressed in HEK293 cell membranes assessed as reduction in CGS-21680-induced cAMP level pretreated for 15 mins followed by CGS-21680 addition measured after 30 mins by HTRF assay
- Format: functional, cell-based
pKi: −log10 of the molar value.
endpoint.label: pKi

COCCOc1cc(F)c(N2CCN(CCn3c(=O)n(C)c4c3nc(N)n3nc(-c5ccco5)nc43)CC2)cc1F : 8.92
Cc1ccc(N2CCN(CCn3c(=O)n(C)c4c3nc(N)n3nc(-c5ccco5)nc43)CC2)nc1 : 9.40
COCCOc1cccc(N2CCN(CCn3c(=O)n(C)c4c3nc(N)n3nc(-c5ccco5)nc43)CC2)c1 : 9.30
Cn1c(=O)n(CCN2CCN(c3ccc(OC4CCOCC4)cc3)CC2)c2nc(N)n3nc(-c4ccco4)nc3c21 : 9.59
COc1ccc(N2CCN(CCn3c(=O)n(C)c4c3nc(N)n3nc(-c5ccco5)nc43)CC2)cc1 : 9.68
Cn1c(=O)n(CCN2CCN(c3ccc(OC(F)F)cc3)CC2)c2nc(N)n3nc(-c4ccco4)nc3c21 : 9.57
COCCOc1ccc(N2CCN(CCn3c(=O)n(C)c4c3nc(N)n3nc(-c5nccs5)nc43)CC2)cc1 : 8.92
Cn1c(=O)n(CCN2CCN(c3nc(C(F)(F)F)cs3)CC2)c2nc(N)n3nc(-c4ccco4)nc3c21 : 9.05
Cc1nc2cc(N3CCN(CCn4c(=O)n(C)c5c4nc(N)n4nc(-c6ccco6)nc54)CC3)c(F)cc2o1 : 9.82
COCCOc1ccc(N2CCN(CCn3c(=O)n(C)c4c3nc(N)n3nc(-c5nccs5)nc43)CC2)cc1F : 9.40
COCC(C)Oc1ccc(N2CCN(CCn3c(=O)n(C)c4c3nc(N)n3nc(-c5ccco5)nc43)CC2)cc1 (configuration not stated) : 8.82
COc1ccc(N2CCN(CCn3c(=O)n(C)c4c3nc(N)n3nc(-c5ccco5)nc43)CC2)c(F)c1 : 10.22
